Target: DDR1 kinase in DDR1-expressing U2OS cells (Homo sapiens, UniProt Q08345)
Sequence (Q08345 19-913): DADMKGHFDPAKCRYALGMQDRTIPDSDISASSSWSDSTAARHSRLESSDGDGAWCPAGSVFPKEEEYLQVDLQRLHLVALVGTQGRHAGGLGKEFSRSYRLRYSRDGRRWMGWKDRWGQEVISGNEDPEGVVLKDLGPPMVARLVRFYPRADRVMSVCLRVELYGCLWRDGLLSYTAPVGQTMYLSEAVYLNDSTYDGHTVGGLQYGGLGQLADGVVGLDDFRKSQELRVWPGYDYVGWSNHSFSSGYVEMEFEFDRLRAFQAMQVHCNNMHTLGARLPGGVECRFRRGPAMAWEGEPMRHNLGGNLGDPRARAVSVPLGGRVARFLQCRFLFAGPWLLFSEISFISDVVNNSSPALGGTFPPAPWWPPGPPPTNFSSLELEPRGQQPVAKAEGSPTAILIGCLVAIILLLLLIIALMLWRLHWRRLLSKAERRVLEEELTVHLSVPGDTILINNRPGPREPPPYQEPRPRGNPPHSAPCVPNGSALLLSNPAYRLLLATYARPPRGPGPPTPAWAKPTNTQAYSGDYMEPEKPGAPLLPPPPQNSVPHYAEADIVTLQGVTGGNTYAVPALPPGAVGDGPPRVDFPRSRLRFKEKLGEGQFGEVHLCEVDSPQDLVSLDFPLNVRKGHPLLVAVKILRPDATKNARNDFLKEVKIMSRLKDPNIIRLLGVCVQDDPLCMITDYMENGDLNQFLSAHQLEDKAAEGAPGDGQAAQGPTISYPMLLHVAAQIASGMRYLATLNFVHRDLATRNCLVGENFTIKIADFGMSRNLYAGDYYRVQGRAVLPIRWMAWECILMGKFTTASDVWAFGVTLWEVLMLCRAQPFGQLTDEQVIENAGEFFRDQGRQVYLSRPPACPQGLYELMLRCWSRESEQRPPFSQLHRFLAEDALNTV
Experiment: DDR1 kinase inhibitory effect in DDR1-expressing U2OS cells (PathHunter, type I collagen stimulation)
Conditions: type I collagen 50 μg/mL, 10% FBS, read-out: DDR-1 IC50
observed_property: IC50

• NC(=O)c1ncc2cc(-c3cc(C(=O)N[C@H]4C[C@H](OC(F)(F)F)C[C@@H]4O)ccc3C(F)(F)F)ccn12 = 3.1 nM
• COc1nc(N)ncc1C#Cc1cc(C(=O)N[C@H]2CC3(CC3)C[C@@H]2O)ccc1OC(F)F = 4.1 nM
• Nc1ncc(/C=C(\F)c2cc(C(=O)N[C@H]3CC4(CC4)C[C@@H]3O)ccc2OC(F)F)cn1 = 5.6 nM
• COc1nc(N)ncc1C#Cc1cc(C(=O)N[C@H]2C[C@H](OC(F)(F)F)C[C@@H]2O)ccc1OC(F)F = 1.8 nM

* * *

Biological target: DDR1 kinase in DDR1-expressing U2OS cells (Homo sapiens)
Construct: host or cells: U2OS
Experiment: DDR1 kinase inhibitory effect in DDR1-expressing U2OS cells (PathHunter, type I collagen stimulation)
Format: cell-based
Conditions: type I collagen 50 μg/mL, 10% FBS, read-out: DDR-1 IC50
pIC50: −log10 of the molar value.
observed_property: pIC50

* CCc1ccc(C(=O)N[C@H]2C[C@H](OC(F)(F)F)C[C@@H]2O)cc1NC(=O)c1cnc(NCC2CC2)s1 | 8.17
* Nc1cnc(/C(F)=C/c2cc(C(=O)N[C@H]3CC(F)(F)CC[C@@H]3O)ccc2OC(F)F)cn1 | 7.72
* COc1cncc(/C=C(\F)c2cc(C(=O)N[C@H]3C[C@H](OC(F)(F)F)C[C@@H]3O)cc(F)c2OC(F)F)c1 | 8.72
* Nc1cnc(/C(F)=C/c2cc(C(=O)N[C@H]3C[C@H](OC(F)(F)F)C[C@@H]3O)ccc2OC(F)F)cn1 | 7.14

* * *

Let's go through some recorded pIC50 values for DDR1 protein (Homo sapiens, UniProt Q08345) together.
pIC50: −log10 of the molar value.
observed_property: pIC50

• CCc1ccc(C(=O)N[C@H]2C[C@H](OC(F)(F)F)C[C@@H]2O)cc1NC(=O)c1cnc(NCC2CC2)s1 = 8.89
• CCc1ccc(C(=O)N[C@H]2C[C@H](OC(F)(F)F)C[C@@H]2O)cc1NC(=O)c1cnc(C2CC2)s1 = 8.04
• Nc1ncc(/C=C(\F)c2cc(C(=O)N[C@H]3C[C@H](OC(F)(F)F)C[C@@H]3O)ccc2OC(F)F)cn1 = 9.41
• O=C(N[C@H]1CC2(CC2)C[C@@H]1O)c1ccc(OC(F)F)c(C#Cc2cncc(F)c2)c1 = 8.49
• Cn1cc(C#Cc2cc(C(=O)N[C@H](CO)CCOC(F)(F)F)ccc2OC(F)F)cn1 = 7.44
• O=C(N[C@H]1C[C@H](OC(F)(F)F)C[C@@H]1O)c1ccc(OC(F)F)c(C#Cc2cncnc2)c1 = 8.15
• Cn1cc(C#Cc2cc(C(=O)N[C@H]3C[C@H](OC(F)(F)F)C[C@@H]3O)ccc2OC(F)F)cn1 = 9.41

* * *

Molecular target: DDR1 kinase in DDR1-expressing U2OS cells (Homo sapiens, UniProt Q08345)
Assay: DDR1 kinase inhibitory effect in DDR1-expressing U2OS cells (PathHunter, type I collagen stimulation)
Conditions: type I collagen 50 μg/mL, 10% FBS, read-out: DDR-1 IC50
This listing pairs compounds with measured IC50.
observed_property: IC50

* Nc1cnc(C#Cc2cc(C(=O)N[C@H]3C[C@H](OC(F)(F)F)C[C@@H]3O)ccc2OC(F)F)cn1 | 0.018 µM
* O=C(N[C@H]1C[C@H](OC(F)(F)F)C[C@@H]1O)c1ccc(OC(F)F)c(C#Cc2cncnc2)c1 | 0.029 µM
* CCc1ncc(C(=O)N[C@H]2C[C@H](OC(F)(F)F)C[C@@H]2O)cc1/C=C(\F)c1cnc(N)nc1 | 0.12 µM
* Nc1ncc(/C(F)=C/c2cc(C(=O)N[C@H]3CC(F)(F)CC[C@@H]3O)ccc2OC(F)F)cn1 | 0.04 µM
* CCc1ccc(C(=O)N[C@H](CO)CCOC(F)(F)F)cc1NC(=O)c1cnc(NCC2CC2)s1 | 0.015 µM
* Nc1ncc(/C(F)=C/c2cc(C(=O)N[C@H]3CCCC[C@@H]3O)ccc2OC(F)F)cn1 | 0.099 µM
* Nc1ncc(/C=C(\F)c2cc(C(=O)N[C@H](CO)CCOC(F)(F)F)ccc2OC(F)F)cn1 | 0.014 µM
* CCc1ccc(C(=O)N[C@H]2C[C@H](OC(F)(F)F)C[C@@H]2O)cc1NC(=O)c1cnc(CC2CC2)s1 | 0.017 µM
* NC(=O)c1ncc2cc(-c3cc(C(=O)N[C@H]4CCCC[C@@H]4O)ccc3C(F)(F)F)ccn12 | 0.083 µM
* CCc1ccc(C(=O)N[C@H](CO)CCOC(F)(F)F)cc1NC(=O)c1cnc(CC2CC2)s1 | 0.059 µM
* Nc1ncc(/C=C(\F)c2cc(C(=O)N[C@H]3C[C@H](OC(F)(F)F)C[C@@H]3O)ccc2OC(F)F)cn1 | 0.0039 µM
* O=C(N[C@H]1CC2(CC2)C[C@@H]1O)c1ccc(OC(F)F)c(C#Cc2cncnc2)c1 | 0.15 µM
* CCc1ccc(C(=O)N[C@H]2C[C@H](OC(F)(F)F)C[C@@H]2O)cc1NC(=O)c1cncc(OCC2CC2)c1 | 0.054 µM
* CCc1ccc(C(=O)N[C@H]2C[C@H](OC(F)(F)F)C[C@@H]2O)cc1NC(=O)c1cncc(-c2cccc(F)c2)c1 | 0.0074 µM
* Nc1ncc(C#Cc2cc(C(=O)N[C@H]3CC4(CC4)C[C@@H]3O)ccc2OC(F)F)cn1 | 0.011 µM

Origin of values: patent US20260242343A1
